# STUDY SYSTEM: Cytochrome P450 3A4 (Homo sapiens)
# EXPERIMENT SUMMARY: qHTS Assay for Inhibitors and Substrates of Cytochrome P450 3A4 (AID 884); note: nearly all actives have a fitted effect of over 50% in size; note: potency is the fitted concentration of half-maximal effect
# TEST CONDITIONS: recombinant CYP3A4, Luciferin-PPXE luminescence; series mostly up to 57.1 µM
Inconclusive results are not listed. The source made the active and inactive calls. Calls come from the whole dose curve; as a rule, active = well fitted inhibition curve with a large enough effect; inconclusive = small, poorly fitted or top-dose-only effect; inactive = no such curve, though single readings can be large or run the other way.
TEST READOUT: Potency

compound=C[C@@H](C(=O)NCCF)[C@H]1C[C@]1(C)[C@H](NC(=O)OCc1ccccc1)c1ccccc1 experimental_value="3.98 µM (active)"
compound=COc1cc2nc(N3CC=[N+](C(=O)c4ccco4)CC3)nc(N)c2cc1OC experimental_value=inactive
compound=C[C@@H](C(=O)Nc1ccc2ccccc2c1)[C@H]1C[C@]1(C)[C@H](NS(=O)(=O)c1ccc2ccccc2c1)c1ccccc1 experimental_value="7.94 µM (active)"
compound=Cn1ccc(O)c(C#N)c1=O experimental_value=inactive
compound=COC(=O)[C@@]1(Cc2ccc(F)cc2)[C@H]2c3cc(C(=O)N4CCCC4)n(Cc4ccc(C)c(F)c4F)c3C[C@H]2CN1C(=O)c1ccccc1 experimental_value="2.51 µM (active)"
compound="CCC(C)Nc1ccc(NC(C)CC)cc1 (configuration not stated)" experimental_value="15.8 µM (active)"
compound=O=c1cc(-c2ccccc2O)oc2cc(O)cc(O)c12 experimental_value="3.98 µM (active)"
compound="CCCC[C@@H]1C[C@H]1C(NC(=O)c1cccs1)c1ccccc1C(F)(F)F (some centres not stated)" experimental_value="3.16 µM (active)"
compound=COC(=O)[C@@]1(Cc2ccc(F)cc2)[C@@H]2[C@@H](CC(=O)[C@H]2CC(=O)C(=O)N2CCCC2)CN1C(=O)c1ccccc1 experimental_value="1.58 µM (active)"
compound=COc1ccc2oc(-c3ccccc3)c(OC)c(=O)c2c1 experimental_value="31.6 µM (active)"
compound=Nc1ncnc2c1ncn2[C@@H]1O[C@@H](COP(=O)(O)OP(=O)(O)OP(=O)(O)OP(=O)(O)OC[C@@H]2O[C@@H](n3cnc4c(N)ncnc43)[C@@H](O)[C@H]2O)[C@H](O)[C@@H]1O experimental_value=inactive
compound=O=C(OCC(COC(=O)c1ccccc1)(COC(=O)c1ccccc1)COC(=O)c1ccccc1)c1ccccc1 experimental_value=inactive
compound=COC(=O)[C@@]1(Cc2ccccc2)[C@H]2c3cc(C(=O)N4CCCC4)n(CC4CC4)c3C[C@H]2CN1C(=O)c1ccccc1 experimental_value="3.16 µM (active)"
compound="CO/N=C(/C(=O)N[C@H]1C(=O)N2C(C(=O)O)=C(COC(C)=O)CSC12)c1csc(N)n1 (some centres not stated)" experimental_value=inactive
compound=COC(=O)[C@@]1(Cc2ccc(OC)cc2)[C@H]2c3cc(C(=O)N4CCCC4)n(Cc4cc(F)cc5c4OCOC5)c3C[C@H]2CN1C(=O)c1ccccc1 experimental_value="2.51 µM (active)"
compound="CCC(C(=O)C(C)C(O)C(C)CCc1ccc(C)c(O)c1C(=O)O)C1OC(CC)(C2CC[C@@](O)(CC)C(C)O2)CC1C (some centres not stated)" experimental_value="20 µM (active)"
compound=COc1cc(O)c2c(=O)cc(-c3ccccc3)oc2c1 experimental_value="10 µM (active)"
